target: Insulin-like growth factor 1 receptor (Homo sapiens); test: Enzymatic radiometric [Km ATP] KinaseProfiler LeadHunter assay, kinase: IGF-1R, catalogue number: 14-465KP The assay has been performed by Eurofins Discovery.; conditions: ATP concentration 200.0 uM, Test compound concentration 10.0 uM
reported property: Activity (%)

# smiles input, test target, measurement unit, recorded measurement
rows = [
    ("Cc1nn(C)cc1-c1cc2c(N[C@H](c3ccc4c(c3)S(=O)(=O)CCC4)C(C)C)ncnc2[nH]1", "Insulin-like growth factor 1 receptor (Homo sapiens)", "%", 97),
    ("COc1ccc([C@H](Cc2nnn[nH]2)NC(=O)c2ncnc3[nH]ccc23)cc1", "Insulin-like growth factor 1 receptor (Homo sapiens)", "%", 103),
    ("CC(C)[C@H](Nc1ncnc2[nH]ccc12)c1ccc2c(c1)S(=O)(=O)CCC2", "Insulin-like growth factor 1 receptor (Homo sapiens)", "%", 100),
    ("CC(C)[C@@H](Nc1ncnc2[nH]ccc12)c1ccc2c(c1)S(=O)(=O)CCC2", "Insulin-like growth factor 1 receptor (Homo sapiens)", "%", 88),
    ("CC(C)[C@@H](Nc1ncnc2[nH]c(C(=O)N[C@@H]3CCN(C)C3)cc12)c1ccc2c(c1)S(=O)(=O)CCC2", "Insulin-like growth factor 1 receptor (Homo sapiens)", "%", 104),
    ("CNCc1cc(-c2cc3c(N[C@@H](c4ccc5c(c4)S(=O)(=O)CCC5)C(C)C)ncnc3[nH]2)co1", "Insulin-like growth factor 1 receptor (Homo sapiens)", "%", 99),
    ("C[C@H](C(=O)O)[C@@H](NC(=O)c1ncnc2[nH]ccc12)c1ccc(Br)cc1", "Insulin-like growth factor 1 receptor (Homo sapiens)", "%", 95),
    ("Cn1ncc(-c2cc3c(N[C@@H](c4ccc5c(n4)OCCO5)C(C)(C)C)ncnc3[nH]2)c1C#N", "Insulin-like growth factor 1 receptor (Homo sapiens)", "%", 77),
    ("CNC(=O)Cn1cc(-c2cc3c(N[C@@H](c4ccc5c(c4)S(=O)(=O)CCC5)C(C)C)ncnc3[nH]2)cn1", "Insulin-like growth factor 1 receptor (Homo sapiens)", "%", 105),
    ("CC(C)[C@H](Nc1ncnc2[nH]c(-c3cnn(C)c3C#N)cc12)c1ccc2c(n1)OCCO2", "Insulin-like growth factor 1 receptor (Homo sapiens)", "%", 85),
    ("COc1ccc([C@@H](Cc2nnn[nH]2)NC(=O)c2ncnc3[nH]ccc23)cc1", "Insulin-like growth factor 1 receptor (Homo sapiens)", "%", 106),
]
